testedTarget: T1, cTnI quality control product recombinant protein (human, UniProt P19429 1-210, limits assumed)
T1 construct: the assay paragraphs only say cTnI; also called cardiac troponin I; cTnI antigen
T1 sequence (P19429 whole entry): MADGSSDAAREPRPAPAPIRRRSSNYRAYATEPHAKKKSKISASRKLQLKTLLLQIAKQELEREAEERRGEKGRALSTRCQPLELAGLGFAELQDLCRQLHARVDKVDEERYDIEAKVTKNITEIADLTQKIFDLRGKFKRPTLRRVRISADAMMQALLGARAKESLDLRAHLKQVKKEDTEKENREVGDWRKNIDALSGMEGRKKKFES
testDetails: AMC biosensor, antibody on sensor
property: koff (s⁻¹)
The answer is to be given in s⁻¹; state only the numeric part.

Solved cases below.
1) Mutation 1-30 (antibody, V domains shown) VH: QVQLQQSGTELAKPGASVKFSCKASGYTFTSYWMYWIKQRPGQGLEWIGYLNPSSGHTDYNQRFKDKATLTADKSSSTAYMQLNSLTSEDSAVYYCARRYFGPFGMDYWGQGTSVTVSS VL: EIFLTQSPAIMSASPGEKVTMTCSASTTVSYVHWYQQKSGTSPKRWLYDTSKLASGIPVRFSGSGSGTSYSLTISSMEAEDAATYYCQQWSSNPYTFGGGTKLEIKR    0.000258
2) Mutation 1-18 (antibody, V domains shown) VH: QVQLQQSGTELAKPGASVKFSCKASGYTFTTYWMYWIKQRPGQGLEWIGYINPSSGHTDYNQRFKDKATLTADKSSSTAYMQLNSLTSEDSAVYYCARRYFGPFGMDYWGQGTSVTVSS VL: EIFLTQSPAIMSASPGEKVTMTCSASTTVSYVHWYQQKSGTSPKRWLYDTSKLASGIPVRFSGSGSGTSYSLTISSMEAEDAATYYCQQWSSQPYTFGGGTKLEIKR    8.41e-05

Okay, next one:
// lookup koff for Mutation 1-44 (antibody, V domains shown) VH: QVQLQQSGTELAKPGASVKFSCKASGYTFSTYWMYWIKQRPGQGLEWIGYINPSSGHTDYNQRFKDKATLTADKSSSTAYMQLNSLTSEDSAVYYCARKYYGPFGMDYWGQGTSVTVSS VL: EIFLTQSPAIMSASPGEKVTMTCSASSSVSYVHWYQQKSGTSPKRWIYDTSKIASGIPVRFSGSGSGTSYSLTISSMEAEDAATYYCQQWSTNPYTFGGGTKLEIKR
6.9e-05
